Data provenance: PubChem BioAssay

- method.summary: reduced SW480 viability measured with CellTiter-Glo, NPC library, primary (AID 1117343)
- conditions: CellTiter-Glo luminescence; at 20 µM (top of the series)
Activity calls are given as the source filed them.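 How the source made its calls: active means compounds that lower viability of the colon cancer cells in the luminescence readout, with no numeric limit stated; inactive means the rest.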
outcome.measure: viability decrease (inhibition)

1. COc1ccc2cc1Oc1ccc(cc1)C[C@H]1c3c(cc4c(c3Oc3cc5c(cc3OC)CCN(C)[C@@H]5C2)OCO4)CCN1C; 123% (active)
2. Cc1nc(N)nc(N)c1-c1ccc(Cl)c(Cl)c1; 131% (active)
3. O=C1CC2(CCCC2)CC(=O)N1CCNCC1COc2ccccc2O1 (stereo unspecified); 14.5% (inactive)

Hi, could you look up viability decrease (inhibition) for each item in my list?
1. COc1cc(C)nc(-n2nc(C)cc2OC)n1
2. COc1ccc(C2CNC(=O)C2)cc1OC1CCCC1 (stereo unspecified)
3. CC(=O)NO
4. CCN(CC)CCNC(=O)c1ccc(NC(C)=O)cc1

1: 1.8% (inactive); 2: 88.4% (active); 3: 69.2% (active); 4: 25.6% (inactive)

Would you be so kind as to report viability decrease (inhibition) for each listed record?
1. CC(=O)OCC(=O)[C@H]1CC[C@H]2[C@@H]3CCC4=CC(=O)CC[C@]4(C)[C@H]3CC[C@]12C
2. CC1(C)O[C@@H]2C[C@H]3[C@@H]4C[C@H](F)C5=CC(=O)C=C[C@]5(C)[C@@]4(F)[C@@H](O)C[C@]3(C)[C@]2(C(=O)CO)O1
3. Clc1ccc2nsnc2c1NC1=NCCN1
4. NC(Cc1ccc(Cl)cc1)C(=O)O (stereo unspecified)

1: 1.2% (inactive); 2: 1.8% (active); 3: 8% (inactive); 4: 13.2% (inactive)
